- system-under-test: EZH2 (Homo sapiens (Human))
- Sequence (Q15910 other isoform, or with tags, fused parts or gaps): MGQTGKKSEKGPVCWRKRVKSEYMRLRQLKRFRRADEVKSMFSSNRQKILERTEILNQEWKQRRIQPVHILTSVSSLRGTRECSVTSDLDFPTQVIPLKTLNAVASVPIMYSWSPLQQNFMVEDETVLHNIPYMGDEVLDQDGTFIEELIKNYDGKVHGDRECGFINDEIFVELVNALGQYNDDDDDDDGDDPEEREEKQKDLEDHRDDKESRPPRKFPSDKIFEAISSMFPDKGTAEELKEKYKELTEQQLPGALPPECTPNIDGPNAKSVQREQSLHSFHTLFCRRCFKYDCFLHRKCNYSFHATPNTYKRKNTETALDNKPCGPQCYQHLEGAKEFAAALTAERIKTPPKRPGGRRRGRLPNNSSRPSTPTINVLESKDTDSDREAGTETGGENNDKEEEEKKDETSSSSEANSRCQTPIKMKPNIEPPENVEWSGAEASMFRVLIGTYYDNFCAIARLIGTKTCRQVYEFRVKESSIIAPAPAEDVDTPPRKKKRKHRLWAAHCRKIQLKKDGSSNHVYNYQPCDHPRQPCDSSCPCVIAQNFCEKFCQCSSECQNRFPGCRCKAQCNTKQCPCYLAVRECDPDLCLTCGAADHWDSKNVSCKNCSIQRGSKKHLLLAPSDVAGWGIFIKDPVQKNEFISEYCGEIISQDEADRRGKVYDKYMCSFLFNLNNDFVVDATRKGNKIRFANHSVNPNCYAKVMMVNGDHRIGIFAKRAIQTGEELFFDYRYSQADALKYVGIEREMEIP
- Sequence (O75530 whole entry partner): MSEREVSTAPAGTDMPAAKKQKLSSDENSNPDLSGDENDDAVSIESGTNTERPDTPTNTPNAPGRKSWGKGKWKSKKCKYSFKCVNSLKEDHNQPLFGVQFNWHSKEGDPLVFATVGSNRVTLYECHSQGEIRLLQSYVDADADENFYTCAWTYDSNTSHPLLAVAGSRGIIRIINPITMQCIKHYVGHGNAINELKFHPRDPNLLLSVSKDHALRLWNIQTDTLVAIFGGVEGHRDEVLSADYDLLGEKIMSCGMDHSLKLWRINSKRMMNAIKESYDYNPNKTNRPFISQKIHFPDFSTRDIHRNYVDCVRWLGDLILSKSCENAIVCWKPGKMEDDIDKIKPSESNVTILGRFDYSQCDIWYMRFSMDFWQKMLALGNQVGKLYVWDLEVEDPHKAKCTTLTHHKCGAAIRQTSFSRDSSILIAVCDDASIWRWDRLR
- Sequence (Q15022 whole entry partner): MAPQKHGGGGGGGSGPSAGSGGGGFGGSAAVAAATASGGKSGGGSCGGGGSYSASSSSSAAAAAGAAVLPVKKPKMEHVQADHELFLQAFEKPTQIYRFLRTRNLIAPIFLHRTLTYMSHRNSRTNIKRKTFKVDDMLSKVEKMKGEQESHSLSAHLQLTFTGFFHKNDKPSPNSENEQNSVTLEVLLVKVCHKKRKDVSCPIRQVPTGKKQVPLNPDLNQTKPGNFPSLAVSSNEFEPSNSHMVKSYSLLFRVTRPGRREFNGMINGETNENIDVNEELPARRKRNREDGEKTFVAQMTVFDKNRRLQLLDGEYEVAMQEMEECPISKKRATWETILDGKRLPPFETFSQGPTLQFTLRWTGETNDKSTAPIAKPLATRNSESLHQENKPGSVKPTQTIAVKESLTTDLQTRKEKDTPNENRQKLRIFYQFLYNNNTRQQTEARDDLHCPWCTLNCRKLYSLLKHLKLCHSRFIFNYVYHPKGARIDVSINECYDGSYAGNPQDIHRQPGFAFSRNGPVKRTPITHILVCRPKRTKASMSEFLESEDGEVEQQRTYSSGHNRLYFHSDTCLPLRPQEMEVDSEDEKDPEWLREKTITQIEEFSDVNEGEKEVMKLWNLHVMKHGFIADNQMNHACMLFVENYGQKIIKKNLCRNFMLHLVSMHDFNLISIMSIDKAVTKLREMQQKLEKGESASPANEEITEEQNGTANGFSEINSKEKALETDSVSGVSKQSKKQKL
- Sequence (Q09028 whole entry partner): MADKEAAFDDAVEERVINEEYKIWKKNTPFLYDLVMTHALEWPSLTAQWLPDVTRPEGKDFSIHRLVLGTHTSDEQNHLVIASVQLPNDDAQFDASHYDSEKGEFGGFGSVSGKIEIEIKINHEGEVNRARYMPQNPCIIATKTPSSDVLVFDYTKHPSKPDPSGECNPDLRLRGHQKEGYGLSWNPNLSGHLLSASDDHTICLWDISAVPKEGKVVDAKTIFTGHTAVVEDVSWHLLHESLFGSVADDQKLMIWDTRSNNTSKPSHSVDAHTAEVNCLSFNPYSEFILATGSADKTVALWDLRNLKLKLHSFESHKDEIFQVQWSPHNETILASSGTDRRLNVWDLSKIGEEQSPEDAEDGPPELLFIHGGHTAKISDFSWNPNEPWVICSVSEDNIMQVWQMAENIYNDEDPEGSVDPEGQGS
- assay-overview: PRC2 enzyme assay on peptide substrates
- Format: biochemical
- measurement-context: PRC2 enzyme assays on peptide substrates; 4 nM enzyme, 30 min preincubation at 25° C.; read-out: EZH2 IC50
- Text: General Materials. S-adenosylmethionine (SAM), S-adenosylhomocyteine (SAH), bicine, KCl, Tween20, dimethylsulfoxide (DMSO) and bovine skin gelatin (BSG) were purchased from Sigma-Aldrich at the highest level of purity possible. Dithiothreitol (DTT) was purchased from EMD. ^3H-SAM was purchased from American Radiolabeled Chemicals with a specific activity of 80 Ci/mmol. 384-well streptavidin Flashplates were purchased from PerkinElmer. Substrates. […] The sequences are listed below. […]
Form field: IC50 (one value per entry).
metric-name: IC50

• CCc1c(C)[nH]c(=O)c(CNC(=O)c2cc(C3=CC(C)(C)NC(C)(C)C3)nc3c2cnn3C(C)C)c1C = 3000 to 10000 nM
• Cc1cc(C)c(CNC(=O)c2cc(C3=CCN(CCS(C)(=O)=O)CC3)nc3c2cnn3C(C)C)c(=O)[nH]1 = 1000 to 3000 nM
• Cc1cc(C)c(CNC(=O)c2cc(C3=CCN(C(=O)CO)CC3)nc3c2cnn3C(C)C)c(=O)[nH]1 = 300 to 1000 nM
• Cc1cc(C)c(CNC(=O)c2cc(CN3CCNC(=O)C3)cc3c2cnn3C2CCCC2)c(=O)[nH]1 = 300 to 1000 nM
• Cc1cc(C)c(CN(C)C(=O)c2cc(-c3cccc(CN4CCN(C)CC4)c3)nc3c2cnn3C(C)C)c(=O)[nH]1 = 10000 to 50000 nM
• Cc1cc(C)c(CNC(=O)c2cc(C3CCN(C(=O)CO)CC3)nc3c2cnn3C(C)C)c(=O)[nH]1 = 300 to 1000 nM
• CC(=O)N1CC(n2ncc3c(C(=O)NCc4c(C)cc(C)[nH]c4=O)cc(Br)cc32)C1 = 1000 to 3000 nM
• Cc1cc(C)c(CNC(=O)c2cc(-c3ccc(C(=O)O)cc3)nc3c2cnn3C(C)C)c(=O)[nH]1 = 1000 to 3000 nM
• Cc1cc(C)c(CNC(=O)c2cc(-c3ccc(CN4CCOCC4)cc3C)cc3c2cnn3C2CCCC2)c(=O)[nH]1 = < 300 nM
• Cc1cc(C)c(CNC(=O)c2cc(-c3cccnc3N3CCN(C)CC3)nc3c2cnn3C(C)C)c(=O)[nH]1 = 1000 to 3000 nM
• Cc1cc(C)c(CNC(=O)c2cc(Br)cc3c2cnn3C2CCN(C(=O)C3CCCC3)CC2)c(=O)[nH]1 = 300 to 1000 nM
• Cc1cc(C)c(CNC(=O)c2cc(-c3ccccc3CNC(=O)OC(C)(C)C)nc3c2cnn3C(C)C)c(=O)[nH]1 = 10000 to 50000 nM
• CNCC(=O)N1CC=C(c2cc(C(=O)NCc3c(C)cc(C)[nH]c3=O)c3cnn(C(C)C)c3n2)CC1 = 300 to 1000 nM
• CC(=O)N1CC=C(c2cc(C(=O)NCc3c(C)cc(C)[nH]c3=O)c3cnn(C(C)C)c3n2)CC1 = 300 to 1000 nM

====

- system-under-test: EZH2 (Homo sapiens (Human))
- assay-overview: PRC2 enzyme assay on peptide substrates
- Type: biochemical
- measurement-context: PRC2 enzyme assays on peptide substrates; 4 nM enzyme, 30 min preincubation at 25° C.; read-out: EZH2 IC50
- Excerpt: General Materials. S-adenosylmethionine (SAM), S-adenosylhomocyteine (SAH), bicine, KCl, Tween20, dimethylsulfoxide (DMSO) and bovine skin gelatin (BSG) were purchased from Sigma-Aldrich at the highest level of purity possible. Dithiothreitol (DTT) was purchased from EMD. ^3H-SAM was purchased from American Radiolabeled Chemicals with a specific activity of 80 Ci/mmol. 384-well streptavidin Flashplates were purchased from PerkinElmer. Substrates. […] The sequences are listed below. […]
Form field: IC50 (one value per entry).
metric-name: IC50

• Cc1ccc(CNC(=O)c2cc(-c3ccc(N4CCN(C)CC4)nc3)nc3c2cnn3C(C)C)c(=O)[nH]1 [Compound A-60] = 1 to 3 µM
• Cc1cc(C)c(CNC(=O)c2cc(Br)cc3c2cnn3C2CCN(C(=O)OC(C)(C)C)CC2)c(=O)[nH]1 [Compound D-12] = < 0.3 µM
• Cc1cc(C)c(CNC(=O)c2cc(N3CCC(O)C3)nc3c2cnn3C(C)C)c(=O)[nH]1 (centres unmarked) [Compound B-119] = 1 to 3 µM
• Cc1cc(C)c(CNC(=O)c2cc(N3CCC(C4CCN(C)CC4)CC3)nc3c2cnn3C(C)C)c(=O)[nH]1 [Compound B-94] = 1 to 3 µM
• Cc1cc(C)c(CNC(=O)c2cc(C(=O)N3CCC(N4CCN(C)CC4)CC3)nc3c2cnn3C(C)C)c(=O)[nH]1 [Compound B-128] = 3 to 10 µM
